quantity_measured: melting point

Dear colleague, please send me the reported melting point for Cc1oc(-c2ccccc2)nc1CCc1ccc(/C=C/C=C/CO)cc1 when you can.
117 to 118 °C

***
Dear colleague, please send me the reported melting point for CCN(C1CCN(Cc2ccccc2)C1)S(=O)(=O)c1ccc(Nc2nccc(Nc3ccc(F)cc3)n2)cc1 (configuration not stated) when you can.
125 to 127 °C

Dear colleague, please send me the reported melting point for COC(=O)C1=C(C)NC(C)=C(C(=O)OCCN2CCN(C(c3ccc(C)cc3)c3ccc(C)cc3)CC2)C1c1cccc([N+](=O)[O-])c1 (configuration not stated) when you can.
83 to 87 °C

Dear colleague, please send me the reported melting point for O=C(c1ccc[nH]1)c1cccn1N1C(=O)c2ccccc2C1=O when you can.
204 to 206 °C

Dear colleague, please send me the reported melting point for Cc1cc2nc(NC(=O)C(C)(C)C)[nH]c(=O)c2[nH]1 when you can.
156 to 157 °C

Dear colleague, please send me the reported melting point for CCOCc1nc2c(NC(=O)c3ccccc3)nc3ccccc3c2n1CC(C)(C)NS(C)(=O)=O when you can.
80 to 83 °C

Dear colleague, please send me the reported melting point for CC12CC3CC(C1)CC(CNC(=O)n1cc(F)c(=O)[nH]c1=O)(C3)C2 when you can.
172 °C

====

Listing of recorded melting point by entry.

Dear colleague, please send me the reported melting point for COc1cc(C(=O)C(Br)CCC2CCCCC2)c(OC)cc1C (stereo not given) when you can.
75 to 77 °C

Dear colleague, please send me the reported melting point for Cc1cc(C)c2c3c([nH]c2c1)C(=O)N=NC3=O when you can.
> 250 °C

====

quantity_measured: melting point

Dear colleague, please send me the reported melting point for C[C@H](Cn1cccn1)NC(=O)c1c[nH]c2ncc(-c3nn(C)c4cc(F)ccc34)nc12 when you can.
252 to 253 °C

***
Dear colleague, please send me the reported melting point for Nc1ccc(-c2n[nH]c3c2Cc2ccccc2-3)cc1 when you can.
253 to 254 °C

Dear colleague, please send me the reported melting point for c1ccc(N2C(=NCCCn3ccnc3)c3cccc4cccc2c34)cc1 when you can.
103 to 105 °C

Dear colleague, please send me the reported melting point for COC(=O)c1cnc(S)n1Cc1cc(F)cc(F)c1 when you can.
177 to 178 °C

Dear colleague, please send me the reported melting point for Cc1nn(C)c2nc(N)nc(N)c2c1=O when you can.
> 275 °C

Dear colleague, please send me the reported melting point for CCC1CN(c2cccc(C(C)C)c2)C(=O)C1c1cccc(Cl)c1 (stereo unspecified) when you can.
88.5 to 90 °C

Dear colleague, please send me the reported melting point for c1ccc(-c2cc(-c3csc(Nc4ccccn4)n3)on2)cc1 when you can.
211 to 215 °C

Dear colleague, please send me the reported melting point for Cc1cccc(Cl)c1C(N)=NO when you can.
136 to 137 °C

Dear colleague, please send me the reported melting point for CCOC(=O)c1cc2cc(F)cc(Br)c2[nH]1 when you can.
125 °C

Dear colleague, please send me the reported melting point for CCOC(=O)c1[nH]c2ccc(Cl)cc2c1Sc1ccccc1 when you can.
160 to 162 °C

====

Listing of recorded melting point by entry.

Some solved entries appear below for comparison.
Dear colleague, please send me the reported melting point for CC(Oc1ccc(Oc2cnc3cc(Cl)ccc3n2)cc1)C(=O)Nc1ccc(OC(F)(F)CF)cc1 (stereo not drawn) when you can.
137 to 140 °C

Dear colleague, please send me the reported melting point for CCc1noc(C)c1-c1c(C(O)CN(C)C)c2ccccc2n1C (stereo not drawn) when you can.
119 to 121 °C

Dear colleague, please send me the reported melting point for CCOP(=O)(CC(=O)Nc1cc2c(Nc3ccc(Cl)c(Br)c3)ncnc2cn1)OCC when you can.
113 to 116 °C

Dear colleague, please send me the reported melting point for Cc1ccc(SCc2c(C(C)C)nc(C(C)C)c(CO)c2-c2ccc(F)cc2)cc1 when you can.
90 to 91 °C

Dear colleague, please send me the reported melting point for CCn1cc(-c2sc(NC(=O)c3ccncc3)nc2-c2ccco2)ccc1=O when you can.
285 to 289 °C

Consider the record given below.
Dear colleague, please send me the reported melting point for Cn1c(C(F)(F)F)cc(=O)n(-c2ccc(Cl)c(C=O)c2)c1=O when you can.
151 to 153 °C
